Hello, the source for this data is patent US8026218, in case you need it.

molecular target: human NK1 receptor (human) (UniProt P25103); test: competition vs [3H]Substance P, hNK1 CHO cell membranes
Sequence (P25103 whole entry): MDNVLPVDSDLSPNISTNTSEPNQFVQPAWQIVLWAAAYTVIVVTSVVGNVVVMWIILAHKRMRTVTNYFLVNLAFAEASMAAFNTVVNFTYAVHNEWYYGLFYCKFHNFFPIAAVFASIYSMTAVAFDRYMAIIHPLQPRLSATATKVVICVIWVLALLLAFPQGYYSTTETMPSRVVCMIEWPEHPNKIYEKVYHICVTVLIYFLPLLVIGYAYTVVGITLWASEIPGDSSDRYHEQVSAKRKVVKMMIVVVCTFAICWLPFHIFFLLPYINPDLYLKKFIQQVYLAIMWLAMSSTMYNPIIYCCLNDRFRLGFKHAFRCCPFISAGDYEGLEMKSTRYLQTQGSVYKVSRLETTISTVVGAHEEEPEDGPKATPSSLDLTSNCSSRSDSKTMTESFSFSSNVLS
Bridge positions count the residues as written; N and C are the ends. Square brackets hold non-standard residues; d marks the D form. Ends that are not written are not given here. * marks the point of attachment. NH(3,5-(CF3)2-benzyl) = FC(F)(F)c1cc(CN*)cc(C(F)(F)F)c1; dPen = CC(C)(S)[C@@H](N)C(=O)O; Pen = CC(C)(S)[C@H](N)C(=O)O; Nle = CCCC[C@H](N)C(=O)O
Quick reference: Ki of the listed items.
measurementLabel: Ki

binder	result
Y[dPen]GF[Nle]P[dPen]W-{NH(3,5-(CF3)2-benzyl)} (disulfide 2-7) [Tyr[DPenGlyPheNleProDPen]TrpNHBn(CF3)2]	1.9 nM
Y[dPen]GF[Nle]P[Pen]W-{NH(3,5-(CF3)2-benzyl)} (disulfide 2-7) [Tyr[DPenGlyPheNleProPen]TrpNHBn(CF3)2]	59 nM
